Source listed as paper PMC12864922.

Listed below: binding signal values for each entry.
assaySystem: TDP-43 (Homo sapiens, UniProt Q13148 1-414)
Sequence (Q13148 whole entry): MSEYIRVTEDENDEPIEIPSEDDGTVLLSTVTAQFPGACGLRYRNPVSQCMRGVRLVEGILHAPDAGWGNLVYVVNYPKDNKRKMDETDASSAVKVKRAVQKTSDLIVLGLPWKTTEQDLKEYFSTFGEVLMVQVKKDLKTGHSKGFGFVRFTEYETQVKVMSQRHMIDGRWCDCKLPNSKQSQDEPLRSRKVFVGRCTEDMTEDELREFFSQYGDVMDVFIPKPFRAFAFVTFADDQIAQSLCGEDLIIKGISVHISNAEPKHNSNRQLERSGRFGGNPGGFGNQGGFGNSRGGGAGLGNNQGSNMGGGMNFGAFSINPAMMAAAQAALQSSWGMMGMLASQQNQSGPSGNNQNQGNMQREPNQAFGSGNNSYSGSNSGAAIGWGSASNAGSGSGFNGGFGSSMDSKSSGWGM
experimentalDetails: RNA Bind-n-Seq with designed 260-mer pool; 25 mM Tris-HCl, 150 mM KCl, 3 mM MgCl2, BSA (printed 500 mg/mL), 20 units/mL SUPERase IN; pH not stated; 500 nM RNA pool, 1 h, 4 C; TDP-43 5, 50, 500 nM; high values mean tight binding
recordedConditions: protein: recombinant; tags: SBP (GST cleaved off with PreScission; pGEX-GST-SBP)
The full ranking holds about 9,900 sequences; the median of “r (bound/input frequency ratio)” is about 0.7, and the highest 2% start at about 6.5. This excerpt belongs to a sample that is enriched for the highest values.

1. ENSMUSG00000061578.1543|Ksr2 (ssRNA) RNA: GGGAGUUCUACAGUCCGACGAUCGCUUCGAUAUCCGCAUGCUACACUAUGUAUAUUUGUAUAGAUCAUUUAUAAAGUUUUCUACACUUCUCAAAAAAAAAAAUAUUUCUAACCUUGGCUGUUGGACAGUCUGUGAGCCUGUGAGCCGGCAAGCCUGUUGUUUCUUGUGUUUAGUGCAAUGUUAGUGAGAAUCCAGUGUCUGAGUUAUUAAUGCCAAUAAAGAAUUUGAGAAUUACUGCAUCCGCUGCUGUCACUCCAGGUCAGAACUCUGCUGUUGUCUGUUGGAUGGAAGGAAGCUCCAGAGCUCUUGCGGUCGCACUAGUGUGGAAUUCUCGGGUGUCAAGG    0.902 R (bound/input frequency ratio)

As a next step, examine the binder that follows.
Briefly, binding signal measured for ENSMUSG00000035202.103|Lars2|4:8 (ssRNA) RNA: GGGAGUUCUACAGUCCGACGAUCGCUUCGAUAUCCGCAUGCUAGCUACACACUCCAGUGUCUUUUACCAUCACAGGCCCUGGCUCUGUGCUACCUCCCUAGAAUACCUGUGGUUCAUCACCUUCAGCUCACACUCCAUUCAGACAAUGCUCACUUAGGCCUACAAGCAAGGGAGAGGCUUAAGCACAAGGUCUUUAAGCUUGAUACUGUGCCUGGUCUCAAUGCCUAGAAAUUCCAACUUAACUGUCGCUAUCAUAAAGGAUUUUAAAUUUUUUUACAAGUGAGAACCUAGCAUGUCAAGGUCCUCUUGCGGUCGCACUAGUGUGGAAUUCUCGGGUGUCAAGG : 0.427 R (bound/input frequency ratio)
